# Experiment Description: Rat oral exposure (plasma exposure upon oral administration)
# Type: in vivo
# Condition: plasma; rat, oral, 10 mg/kg, 10h; read-out: Rat oral exposure (μM) @ 10 mg/kg dose 10h
Readout Label: concentration at 10 h (µM)
Express your answer in µM, writing the number without its unit.

Consider the molecule shown here: CCC(F)(F)c1cc(N2CCC(S(C)(=O)=O)CC2)nc2sc(C(N)=O)c(N)c12 [Compound 115] What is its recorded concentration at 10 h? 0.65

Consider the molecule shown here: CCCc1cc(N2CCC(S(C)(=O)=O)CC2)nc2sc(C(N)=O)c(N)c12 [Compound 100, reference compound] What is its recorded concentration at 10 h? 0.08

====

# Experiment Description: Rat oral exposure (plasma exposure upon oral administration)
# Assay type: in vivo
# Condition: plasma; rat, oral, 10 mg/kg, 2h; read-out: Rat oral exposure (μM) @ 10 mg/kg dose 2h
Readout Label: concentration at 2 h (µM)
Express your answer in µM, writing the number without its unit.

Consider the molecule shown here: CCC(F)(F)c1cc(N2CCC(S(C)(=O)=O)CC2)nc2sc(C(N)=O)c(N)c12 [Compound 115] What is its recorded concentration at 2 h? 1.59

Consider the molecule shown here: CCCc1cc(N2CCC(S(C)(=O)=O)CC2)nc2sc(C(N)=O)c(N)c12 [Compound 100, reference compound] What is its recorded concentration at 2 h? 0.21

====

# Experiment Description: Rat oral exposure (plasma exposure upon oral administration)
# Format: in vivo
# Condition: plasma; rat, oral, 10 mg/kg, 6h; read-out: Rat oral exposure (μM) @ 10 mg/kg dose 6h
For each record, write down the corresponding concentration at 6 h.

Consider the compound shown here: CCCc1cc(N2CCC(S(C)(=O)=O)CC2)nc2sc(C(N)=O)c(N)c12 [Compound 100, reference compound] What is its recorded concentration at 6 h? 0.12 µM

Consider the compound shown here: "CCC(F)(F)c1cc(N2CCC(S(C)(=O)=O)CC2)nc2sc(C(N)=O)c(N)c12" What is its recorded concentration at 6 h? 0.78 µM
